The reported measurements were obtained from paper PMC5695660.

# ASSAYED SYSTEM: Cak1p (Saccharomyces cerevisiae, UniProt P43568)
# Sequence (P43568 whole entry): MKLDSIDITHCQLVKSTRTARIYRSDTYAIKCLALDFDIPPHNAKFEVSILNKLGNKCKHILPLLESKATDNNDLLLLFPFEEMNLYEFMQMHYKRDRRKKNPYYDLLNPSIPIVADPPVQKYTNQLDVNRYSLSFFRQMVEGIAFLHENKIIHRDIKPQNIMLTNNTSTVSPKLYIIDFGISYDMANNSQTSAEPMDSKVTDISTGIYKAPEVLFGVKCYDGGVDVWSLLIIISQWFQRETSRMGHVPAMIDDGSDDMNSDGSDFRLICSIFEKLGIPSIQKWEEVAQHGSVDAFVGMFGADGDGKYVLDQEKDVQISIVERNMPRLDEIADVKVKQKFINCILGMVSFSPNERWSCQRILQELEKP
MEASUREMENT KIND: Kd

Cak1p (Saccharomyces cerevisiae, UniProt P43568) / Kd / NC1=N/C(=C2/CCNC(=O)c3[nH]ccc32)C(=O)N1 : value?
~1700 nM
